# credit: PubChem BioAssay

# Method Description: inhibitors of TNFa-induced NFkB p65 translocation, primary screen, imaging, HUVEC, MLSMR starter and 10KST1 sets (AID 438);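 note: compound added about 3h40 before a 20 min TNFalpha stimulation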;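 for inhibition: signal is the nuclear over cytoplasmic p65 intensity ratio per well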
# Condition Details: HUVEC TNFa-induced p65 nuclear translocation; at 2 µM, stronger effect = higher value, 0% TNFa-plus-vehicle, 100% no-TNFa wells
Exercise: state measured inhibition for each of the compounds provided.
Please state the figure in %; there is no need to write the unit.

For the compound CCCCNc1cc(C(=O)O)cc(S(N)(=O)=O)c1Oc1ccccc1 , give its measured inhibition value.
-16.6

State its inhibition for this compound: CSc1ccc2c(c1)N(CCC1CCCCN1C)c1ccccc1S2 (stereo not given)
-2.7

Read off the recorded inhibition for Cc1onc(-c2ccccc2)c1C(=O)N[C@@H]1C(=O)N2[C@@H]1SC(C)(C)[C@@H]2C(=O)O
-3.4

Please list inhibition recorded for the compound COC(=O)C1=C(C)N=C2SC(C)C(=O)N2C1/C=C/c1ccccc1OC (stereo not given)
3.2

Supply recorded inhibition for COC(=O)/C=c1/s/c(=C(/C#N)C(=O)N2CCOCC2)n(-c2ccccc2)c1=O here.
1.5

* * *

# Method Description: inhibitors of TNFa-induced NFkB p65 translocation, primary screen, imaging, HUVEC, MLSMR starter and 10KST1 sets (AID 438);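 note: compound added about 3h40 before a 20 min TNFalpha stimulation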
# Condition Details: HUVEC TNFa-induced p65 nuclear translocation; measured here: nuclei count (cytotoxicity indicator), at 2.08 µM
Task for the reader: assign each of the following compounds its reported cell count.
The response must contain the number and no unit.

Please give measured cell count of the following entry: O=C(c1cccc(Cl)c1)N1CCN(C(=O)c2ccccc2F)CC1
359

Read off the recorded cell count for COc1ccc(C(=O)NCCCCCC(=O)O)cc1OC
687

Return cell count for the following compound: CCCC(=O)Nc1ccc(OCC(O)CNC(C)C)c(C(C)=O)c1 (stereo unspecified)
693

Determine its reported cell count: Cc1cccc(COc2ccc(/C(O)=C3\C(=O)C(=O)N(CCN(C)C)C3c3ccncc3)cc2)c1 (stereo unspecified)
526

Answer with the recorded cell count for the compound listed here: N=c1c(C(=O)NCc2ccccc2)cc2c(=O)n3ccccc3nc2n1Cc1ccco1
365

Tell me its cell count given COc1cc(OC)cc(C(=O)N2CCC(N3CCCCCC3)CC2)c1 as the entry.
372

Tell me measured cell count for CCCCCCCCCCCCCCCC(O)C(N)CO (stereo unspecified) please.
586

Please indicate cell count recorded for Cc1ccc2[nH]c3c(N4CCCCCC4)ncnc3c2c1
377

Indicate its recorded cell count; the compound in question is COc1ccc(NS(=O)(=O)c2ccc(N)cc2)nn1
634

Fill in cell count for record N#Cc1nc(-c2ccccc2Cl)oc1N1CCCCC1
419

Give the reported cell count for this compound. COc1ccc2[nH]c(C)c(C(=O)CN3CCc4cc(OC)c(OC)cc4C3)c2c1
520

* * *

# Method Description: inhibitors of larval lipid processing in zebrafish, primary screen, whole organism, PED6 fluorescence, gall bladder and intestine (AID 686);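 note: larvae 5 to 7 days old with five fish per well; signal comes from phospholipase A2 cleavage of quenched PED6 carried via bile; overnight exposure to compound and PED6 before scoring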
# Condition Details: Zebrafish larvae PED6 lipid processing, fluorescence scoring; screened at 20 µM (by protocol)
Active and inactive are the calls of the source.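 How the source made its calls: active means a full or partial loss of lipid-probe fluorescence in the fish gall bladder, intestine or both, judged by eye; inactive means no fluorescence loss, or compound toxic to the fish.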
Could you please pick one outcome from this set? T = active, F = inactive

Returns: the outcome recorded for CCN(CC)S(=O)(=O)c1ccc2c(c1)c(C(=O)O)cn2C in this assay.
F

Hi team, can someone confirm the assay call for CCOc1ccc(C2C(C#N)=C(N)SC(N)=C2C#N)cc1OC ?
F

What call does the record list for CCN1CC2=C(OC(N)=C(C#N)C2c2ccccc2)/C(=C\c2ccccc2)C1 (stereo unspecified) ?
T

State the result this test recorded for Cn1c(=O)n(Cc2ccccc2)c(=O)c2c1nc(NCC1CCCO1)n2Cc1ccccc1 (stereo unspecified) .
F

Hi, sorry to bother you, what did the test record for Cn1nnnc1SCC1=C(C(=O)O)N2C(=O)[C@@H](NC(=O)[C@H](O)c3ccccc3)[C@H]2SC1 ?
F

What was the test verdict on COc1ccc(/C(O)=C2/C(=O)C(=O)N(c3ncccn3)C2c2ccc(OC)c(OC)c2)cc1 (stereo unspecified) ?
F

Could you check what this test reported for CCCNC(=O)N(C)c1nncnc1C(=O)NC ?
F

Look up the recorded call for Cc1cc(C)nc(NC2=NCC(=O)N2c2ccccc2)n1 in this test.
F

What did this assay record as the result for O=CNC(=O)c1ccccc1C(=O)O ?
F

For COc1ccc2c(c1)[nH]c1c(=O)n(CCN(C)C)cnc12 , which call appears in the assay record?
F

Given OCC(O)CN1CCN(c2ccccc2)CC1 (stereo unspecified) , state the outcome it received in this test.
F

* * *

Exercise: state measured inhibition for each of the compounds provided.
# Target System: Dual specificity protein phosphatase 6 (Homo sapiens)
# Method Description: DUSP6 inhibitors restoring Erk phosphorylation by chemical complementation, primary imaging in DUSP6-transfected HeLa (AID 609);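 note: phospho-Erk level distribution per well compared with pooled transfected vehicle control wells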
# Condition Details: HeLa MKP-3 transfected, phospho-Erk imaging KS statistic; at 10 µM; stronger effect = higher value; cells stimulated with TPA for 15 min
Give the value, in units of %, as a plain number.

Provide inhibition value for the following compound: CCOC(=O)c1[nH]c2cc3c(cc2c1NC(=O)CN1CCCCC1C)OCO3 (stereo unspecified)
-10.5

Return reported inhibition. Input compound: N#CC12CCCCC1CC1CCCCC1(C#N)N2Cc1cccnc1 (stereo unspecified)
17

Tell me inhibition reported for CCOc1cccc(C2C(C#N)=C(N)Oc3cc(C)oc(=O)c32)c1OCC (stereo unspecified)
8.76

Return inhibition (reported value) for this compound: CCOC(=O)C1CCCN(c2nc3ccccc3nc2C(C#N)C(=O)OC(C)C)C1 (stereo unspecified)
-7.86

Retrieve inhibition measured for COc1cc(NC(=O)NC(C)(C(F)(F)F)C(F)(F)F)cc(OC)c1OC and print it.
-1.98

Return value of inhibition for input CCc1cc2c(=O)c(-c3cscn3)coc2cc1O , no commentary.
1.98

* * *

# Target System: Voltage-gated potassium channel subunit beta-2 (Rattus norvegicus) (UniProt P62483)
# Sequence (P62483 whole entry, looked up): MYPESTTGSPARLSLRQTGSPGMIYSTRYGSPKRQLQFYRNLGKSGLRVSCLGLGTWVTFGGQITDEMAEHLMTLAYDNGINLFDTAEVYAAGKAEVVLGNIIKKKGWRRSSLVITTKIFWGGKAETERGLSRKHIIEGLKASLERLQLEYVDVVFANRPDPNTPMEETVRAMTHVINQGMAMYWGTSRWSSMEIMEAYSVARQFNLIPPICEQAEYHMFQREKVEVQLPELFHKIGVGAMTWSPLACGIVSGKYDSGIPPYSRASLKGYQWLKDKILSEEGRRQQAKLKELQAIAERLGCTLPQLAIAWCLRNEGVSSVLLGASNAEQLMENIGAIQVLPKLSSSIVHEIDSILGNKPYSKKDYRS
# Method Description: KvBeta positive modulators, primary screen, biochemical, NADPH fluorescence (AID 623);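 note: fluorescence intensity change per second fitted from 20 to 320 s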
# Condition Details: Recombinant KvBeta, NADPH fluorescence decrease slope, 10 min; at 10 µM; stronger effect = lower value
Measured Metric: NADPH fluorescence slope
The reply should be a number, written without any unit.

Give the reported NADPH fluorescence slope for this compound. CC(NCCC(c1ccccc1)c1ccccc1)c1ccccc1 (stereo unspecified)
-8.5e-06

// Input: COC(=O)c1ccccc1NC=C1C(=O)OC2(CCCCC2)OC1=O . Output its NADPH fluorescence slope only.
-1.9e-05

Name the recorded NADPH fluorescence slope of the compound listed here: CCCCNC(=O)c1cc2n(n1)C(C(F)(F)F)CC(c1ccccc1)N2 (stereo unspecified)
-5.9e-05

Output measured NADPH fluorescence slope for this item: CN1C(=O)CC(N2CCN(c3ccc(Cl)c(Cl)c3)CC2)C1=O (stereo unspecified)
-7.5e-05

Output NADPH fluorescence slope of Cc1ccc2[nH]c3c(N4CCN(Cc5ccccc5)CC4)ncnc3c2c1
-0.000135

State, in one line, measured NADPH fluorescence slope of CCCc1nc(NC2CCCCC2)c(C#N)c2c1COC(C)(C)C2
-6.5e-05

Look up NADPH fluorescence slope of COc1ccc(C(CC(=O)O)NC(=O)OC(C)(C)C)cc1 (stereo unspecified) and report it.
-0.000134

Report NADPH fluorescence slope, nothing else, for this compound: Cc1ccc2[nH]c3c(N4CCN(Cc5ccc6c(c5)OCO6)CC4)ncnc3c2c1
-0.000159

Complete the entry with NADPH fluorescence slope for N#CC(C(=O)Nc1ccc(Cl)c(Cl)c1)=C1Nc2ccccc2N1
-8.3e-07

Given the compound CCc1ccccc1NC(=O)CSC1=C(C#N)C(c2ccc(O)c(OC)c2)C2=C(CCCC2=O)N1 (stereo unspecified) , write its reported NADPH fluorescence slope.
-3.5e-05

Let me know recorded NADPH fluorescence slope for O=C1C=C(O)CC(c2ccco2)C1 (stereo unspecified) , thanks.
-0.00033

Read off the recorded NADPH fluorescence slope for CCCC(=O)O[C@]1(C(=O)COC(C)=O)CC[C@H]2[C@@H]3C[C@H](F)C4=CC(=O)C=C[C@]4(C)[C@@]3(F)[C@@H](O)C[C@@]21C
-5.5e-05

Name the recorded NADPH fluorescence slope of the item Clc1ccc2c(c1)C(N1CCNCC1)=Nc1ccccc1O2 in your answer.
-7.1e-06

Check the records and state NADPH fluorescence slope for CCCCCC1CC(CC#CCN2CCOCC2)C(=O)O1 (stereo unspecified)
-4.2e-05

Read the entry C[C@@H]1CCC[C@H](C)N1NC(=O)c1ccc(Cl)c(S(N)(=O)=O)c1 and write its reported NADPH fluorescence slope.
-5.1e-05

Specify NADPH fluorescence slope for Cc1cc(C)n(Cc2cc(C)c(Cn3nc(C)cc3C)cc2C)n1 and stop.
-0.000128

Complete the entry with NADPH fluorescence slope for Clc1cccc(-c2nn3c(COc4ccccc4)nnc3s2)c1
-0.000153

Please indicate NADPH fluorescence slope recorded for CC(C)c1nc(NCC2CCCO2)c(C#N)c2c1COC(C)(C)C2 (stereo unspecified)
-9.6e-05

Look up and state reported NADPH fluorescence slope for N#CCCn1cnc2c(=S)nc[nH]c21
-0.000132

Supply NADPH fluorescence slope value. Item: Cc1ccc(N2C(=O)[C@@H]3[C@H](C2=O)C2CCCN2[C@@H]3C(=O)c2ccccc2)cc1 (stereo partly specified)
-0.000146

In one line, give reported NADPH fluorescence slope of the entry CC(C)(C)NCc1cc2ccccc2[nH]c1=O .
-4.7e-05

Please report NADPH fluorescence slope for the following compound: Cc1ccc(C)c(OCc2nnc(NC(=O)c3ccco3)s2)c1
-5.4e-05

Complete the entry with NADPH fluorescence slope for CCCCNC(=O)C(C#N)c1nc2ccccc2nc1N1CCN(c2ccccc2F)CC1 (stereo unspecified)
-3.8e-05

Name the recorded NADPH fluorescence slope of the compound listed here: CCCCCn1c2nc3ccccc3nc2c2c(=O)n(CC(C)C)cnc21
-4.4e-05

Provide only the value of recorded NADPH fluorescence slope for CC(=O)O[C@]1(C(C)=O)CC[C@H]2[C@@H]3C[C@H](C)C4=CC(=O)CC[C@]4(C)[C@H]3CC[C@@]21C
-6e-06

Please give measured NADPH fluorescence slope of the following entry: CC1(C)Cc2c(C#N)c(NCc3ccco3)nc(-c3ccco3)c2CO1
-9.7e-06

Please report NADPH fluorescence slope for the following compound: Fc1ccc(-c2cnc[nH]2)cc1
-9.6e-05

Give NADPH fluorescence slope for the following compound: O=C1OC(c2ccc(O)cc2)(c2ccc(O)cc2)c2ccccc21
-6.8e-05

Provide only the value of recorded NADPH fluorescence slope for CN(C)CCOC(=O)C(c1ccccc1)C1(O)CCCC1 (stereo unspecified)
-7.3e-05

Read off the recorded NADPH fluorescence slope for CCOc1cccc(C2C(C#N)=C(N)Oc3cc(C)oc(=O)c32)c1OCC (stereo unspecified)
-0.000143

Query NADPH fluorescence slope for COc1ccc(Oc2nc3c(c(=O)n(C)c(=O)n3C)n2Cc2cccc(OC)c2)cc1
-1.2e-05

Supply measured NADPH fluorescence slope of O=C(C1=C(O)C(=O)N(c2ncccn2)C1c1cccc(Cl)c1)c1ccco1 (stereo unspecified) in your reply.
-2.5e-05

Please give measured NADPH fluorescence slope of the following entry: C/C(=N\O)C(=O)NCCCNCCCN(C)C
-5.8e-05

Entry CC(C)C1=C2OC(N)=C(C#N)C(C#N)=C2C(C)CC1 (stereo unspecified) needs its NADPH fluorescence slope filled in; supply it.
-3.9e-05

Quickly give me recorded NADPH fluorescence slope for COc1ccc(C2=Nn3c(nnc3-c3ccccn3)SC2)cc1
-0.00018

Please give the documented NADPH fluorescence slope of CCOc1ccc(-c2nn3c(-c4ccc(OC)cc4)nnc3s2)cc1
-7.7e-05

Give a short answer stating reported NADPH fluorescence slope for O=C(NC1CCCCC1)N1CCSC1=Nc1ccccc1 .
-9.6e-05

Fill in NADPH fluorescence slope for record CC1(C)Cc2c(C#N)c(SCC(=O)c3ccccc3)nc(N3CCCC3)c2CO1
8.2e-06

Answer with the recorded NADPH fluorescence slope of O=C1OC2CCC1(c1ccccc1)C2 (stereo unspecified) only.
-7.2e-05

State, in one line, measured NADPH fluorescence slope of CCOC(=O)c1c(CN2CCCCC2)oc2ccc(OC)cc12
-0.000135

Return the recorded NADPH fluorescence slope value; entry: C1CCC(C(CC2CCCCN2)C2CCCCC2)CC1 (stereo unspecified)
-1.1e-05

# return recorded NADPH fluorescence slope for input CCN(CC)C(=O)c1sc2nc(-c3cccs3)cc(-c3cccs3)c2c1N
0

For the compound CCCCOc1ccccc1C(=O)NCCCC(=O)O , report NADPH fluorescence slope.
-0.000111

Let me know recorded NADPH fluorescence slope for COCCOC(=O)c1c(C)nc(SCC(=O)Nc2ccc(C)cc2)c(C#N)c1-c1ccco1 , thanks.
-8.7e-05

Kindly indicate its recorded NADPH fluorescence slope. Item: Cc1nccn1-c1cc(C(C)C)c(C#N)c2nc3ccccc3n12
-2.8e-05

Identify measured NADPH fluorescence slope corresponding to Cc1nn(C)cc1CNC(=O)c1ccc(Br)o1
-3.5e-08
